# Study target: T1, human CD47 protein, His Tag (ACRObiosystems, Cat. No. CD7-H5227) (human, UniProt Q08722 19-139)
# T1 construct: bought reagent; also called CD47-His; hCD47-His Tag; not shown: His tag
# T1 sequence (Q08722 19-139 limits assumed): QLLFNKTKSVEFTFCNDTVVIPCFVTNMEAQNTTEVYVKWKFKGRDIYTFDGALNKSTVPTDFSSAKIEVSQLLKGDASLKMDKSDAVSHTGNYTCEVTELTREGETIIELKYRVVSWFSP
# Measurement description: ELISA, plate coated with CD47-His
Readout: EC50 (µg/mL)
I only need the number, in µg/mL, no unit after it.

**Q:** Would you mind telling me what EC50 value was observed for hz3F10-2.2 (antibody, human IgG4 S228P, kappa, V domains shown, humanized 3F10, full-length heavy and light chains) VH: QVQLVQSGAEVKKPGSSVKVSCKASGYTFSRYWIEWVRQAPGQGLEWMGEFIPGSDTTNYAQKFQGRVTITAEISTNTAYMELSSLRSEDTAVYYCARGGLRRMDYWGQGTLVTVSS VL: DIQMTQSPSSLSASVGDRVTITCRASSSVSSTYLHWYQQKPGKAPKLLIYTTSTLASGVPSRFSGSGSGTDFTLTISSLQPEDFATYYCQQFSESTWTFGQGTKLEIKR ?
**A:** 0.106
